Entry source: ChEMBL document CHEMBL1150771

Measured pEC50, listed per entry for reference.
# experimentalSystem: P2Y purinoceptor 4 (Homo sapiens)
# Sequence (P51582 whole entry): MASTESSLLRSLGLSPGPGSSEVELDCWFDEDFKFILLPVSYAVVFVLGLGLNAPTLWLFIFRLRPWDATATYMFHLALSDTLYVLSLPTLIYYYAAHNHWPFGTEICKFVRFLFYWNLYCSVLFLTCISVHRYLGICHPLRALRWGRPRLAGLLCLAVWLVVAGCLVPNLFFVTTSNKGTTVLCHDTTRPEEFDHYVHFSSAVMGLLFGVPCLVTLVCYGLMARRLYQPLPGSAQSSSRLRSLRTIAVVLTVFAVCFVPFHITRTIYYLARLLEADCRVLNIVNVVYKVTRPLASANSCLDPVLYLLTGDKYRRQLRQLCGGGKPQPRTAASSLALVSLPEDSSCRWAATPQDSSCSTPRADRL
# protocolDetails: Agonist activity at human P2Y4 receptor expressed in human 1321N1 cells assessed as [3H]inositol phosphate accumulation by scintillation proximity assay
pEC50: −log10 of the molar value.
quantityMeasured: pEC50

- compound: "O=c1ccn([C@@H]2O[C@H](COP(=O)(O)OP(=O)(O)OP(=O)(O)OP(=O)(O)OC[C@@H]3O[C@@](O)(CO)[C@H](O)[C@H]3O)[C@@H](O)[C@H]2O)c(=O)[nH]1"
  value: 5.20
- compound: "O=c1ccn([C@@H]2O[C@H](COP(=O)(O)OP(=O)(O)OP(=O)(O)OP(=O)(O)O[C@H]3O[C@H](CO)[C@@H](O)[C@H](O)[C@H]3O)[C@@H](O)[C@H]2O)c(=O)[nH]1"
  value: 5.69
- compound: "Nc1ccn([C@H]2C[C@H](O)[C@@H](COP(=O)(O)OP(=O)(O)OP(=O)(O)OP(=O)(O)OC[C@H]3O[C@@H](n4ccc(=O)[nH]c4=O)[C@H](O)[C@@H]3O)O2)c(=O)n1"
  value: 6.85
- compound: "NC(=O)N[C@@H]1[C@H](O)[C@@H](COP(=O)(O)OP(=O)(O)OP(=O)(O)O)O[C@H]1n1ccc(=O)[nH]c1=O"
  value: 5.33
- compound: "O=c1ccn([C@@H]2O[C@H](COP(=O)(O)OP(=O)(O)OP(=O)(O)OP(=O)(O)OC[C@@H]3OC(O)[C@@H](O)[C@H]3O)[C@@H](O)[C@H]2O)c(=O)[nH]1 (stereo not given in full)"
  value: 5.32
